Reference source for all entries: PubChem BioAssay (Tox21)

EXPERIMENT: qHTS assay for identifying genotoxic compounds that show differential cytotoxicity against isogenic chicken DT40 cell lines with known DNA damage response pathways - Rad54/Ku70 mutant cell line (AID 743015); also: nearly all actives have a fitted effect of over 60% in size
REPORTED_CONDITIONS: DT40 Rad54/Ku70 mutant viability, CellTiter-Glo, 40 h; series mostly up to 66.8 µM
Records with an inconclusive call do not appear. Activity calls are given as the source filed them. Calls follow the shape of the dose curve; as a rule, active = well fitted cell-killing curve with a large enough effect in the repeat runs; inconclusive = weak or mixed curves; inactive = no such curve, though single readings can be large or run the other way.
Could you please pick one outcome from this set? 1 = active, -1 = inactive

Record lookup: outcome of this test for `CC(C)(C)c1cc([N+](=O)[O-])cc(C(C)(C)C)c1O` ?
1

Record lookup: outcome of this test for `Cc1cc(SCc2sc(-c3ccc(C(F)(F)F)c(F)c3)nc2C)ccc1OCC(=O)O` ?
1

Record lookup: outcome of this test for CC(C)CC(C)Nc1ccc(Nc2ccccc2)cc1 (stereo unspecified) ?
1

Record lookup: outcome of this test for `Cc1cc(C)cc(OP(=O)(Oc2cc(C)cc(C)c2)Oc2cc(C)cc(C)c2)c1` ?
-1

Record lookup: outcome of this test for `O=[N+]([O-])c1cc(C(F)(F)F)c(Cl)c([N+](=O)[O-])c1Cl` ?
1

Record lookup: outcome of this test for `CC(C)OC(=S)S` ?
1

----------
SUBJECT_OF_TEST: Voltage-gated inwardly rectifying potassium channel KCNH2 (Homo sapiens) (UniProt Q12809)
Sequence (Q12809 whole entry, looked up): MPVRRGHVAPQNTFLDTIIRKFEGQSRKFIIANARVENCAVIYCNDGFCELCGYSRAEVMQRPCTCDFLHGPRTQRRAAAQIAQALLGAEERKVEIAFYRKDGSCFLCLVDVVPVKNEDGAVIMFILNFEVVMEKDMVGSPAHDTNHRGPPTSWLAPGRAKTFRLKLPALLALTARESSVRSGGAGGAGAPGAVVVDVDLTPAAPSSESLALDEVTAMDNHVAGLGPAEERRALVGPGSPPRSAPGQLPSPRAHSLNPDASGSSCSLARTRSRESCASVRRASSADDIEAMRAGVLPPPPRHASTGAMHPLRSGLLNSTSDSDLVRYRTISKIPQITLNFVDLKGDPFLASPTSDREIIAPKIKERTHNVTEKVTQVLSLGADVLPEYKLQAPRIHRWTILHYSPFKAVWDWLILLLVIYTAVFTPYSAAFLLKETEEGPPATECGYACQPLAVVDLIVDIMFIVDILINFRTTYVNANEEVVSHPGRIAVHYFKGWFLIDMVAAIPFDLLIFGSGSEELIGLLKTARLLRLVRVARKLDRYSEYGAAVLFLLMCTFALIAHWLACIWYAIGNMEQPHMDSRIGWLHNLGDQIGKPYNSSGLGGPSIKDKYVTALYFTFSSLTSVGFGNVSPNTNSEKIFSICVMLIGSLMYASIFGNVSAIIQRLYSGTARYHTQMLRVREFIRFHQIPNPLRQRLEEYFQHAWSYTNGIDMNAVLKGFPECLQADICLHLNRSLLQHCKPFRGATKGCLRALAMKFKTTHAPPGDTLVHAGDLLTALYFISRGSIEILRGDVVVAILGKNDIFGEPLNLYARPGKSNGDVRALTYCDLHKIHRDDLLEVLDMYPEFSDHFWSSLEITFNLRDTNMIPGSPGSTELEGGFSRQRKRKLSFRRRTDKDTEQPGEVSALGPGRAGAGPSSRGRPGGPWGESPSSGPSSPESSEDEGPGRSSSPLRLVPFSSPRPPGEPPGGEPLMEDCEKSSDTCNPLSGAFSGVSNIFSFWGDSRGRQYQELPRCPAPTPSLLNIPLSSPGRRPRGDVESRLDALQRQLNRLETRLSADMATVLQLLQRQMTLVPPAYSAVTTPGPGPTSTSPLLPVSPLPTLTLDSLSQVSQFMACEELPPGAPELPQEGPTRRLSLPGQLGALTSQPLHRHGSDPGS
EXPERIMENT: Human Ether-a-go-go-Related Gene (hERG) channel small molecule antagonists: fluorescence cell-based qHTS assay (AID 1671200); also: nearly all actives have a fitted effect of over 50% in size
REPORTED_CONDITIONS: hERG-U2OS cells, FluxOR thallium flux fluorescence; series mostly up to 76.8 µM
Records with an inconclusive call do not appear. Active and inactive are the calls of the source. Calls follow the shape of the dose curve; as a rule, active = well fitted inhibition curve with a large enough effect in the repeat runs; inconclusive = weak or mixed curves; inactive = flat fitted curve, though single readings scatter.
Could you please pick one outcome from this set? active, inactive

Record lookup: outcome of this test for `COc1ccc(OC)c(C=O)c1` ?
inactive

Record lookup: outcome of this test for O=C1NCN(c2ccccc2)C12CCN(CC1COc3ccccc3O1)CC2 (stereo not drawn) ?
active

Record lookup: outcome of this test for `CS(=O)(=O)c1ccc(C(=O)C2C(=O)CCCC2=O)c([N+](=O)[O-])c1` ?
inactive

Record lookup: outcome of this test for `NNC(=O)c1ccccc1` ?
inactive

Record lookup: outcome of this test for `O=CC(Br)(Br)Br` ?
inactive

Record lookup: outcome of this test for `CCCCCCCCCBr` ?
inactive

Record lookup: outcome of this test for `ClCCN1CCOCC1` ?
inactive

Record lookup: outcome of this test for C1CCC2CCCCC2C1 (stereo not drawn) ?
inactive

----------
EXPERIMENT: qHTS RealTime-Glo MT Cell Viability Assay in HEK293 cells - 40 hour (AID 1224874); also: potency is read from the fitted curve at half-maximal effect; nearly all actives have a fitted effect of over 50% in size
REPORTED_CONDITIONS: RealTime-Glo luminescence
Records with an inconclusive call do not appear. Calls of active or inactive are those of the source. The call rests on the fitted dose curve; in most records, active means well fitted cell-killing curve with a large enough effect in the repeat runs; inconclusive means weak or mixed curves, or effect the other way; inactive means flat fitted curve, though single readings scatter.
READOUT_NAME: Potency

What does the record list as Potency for N#CCCC(Br)(C#N)CBr (stereo not drawn) ?
21.9 µM (active)

What does the record list as Potency for `Oc1c(Cl)c(Cl)cc(Cl)c1Cl` ?
47.6 µM (active)

What does the record list as Potency for `Clc1ccc(CO/N=C(\Cn2ccnc2)c2ccc(Cl)cc2Cl)c(Cl)c1` ?
21.3 µM (active)

What does the record list as Potency for `CCOCn1c(-c2ccc(Cl)cc2)c(C#N)c(Br)c1C(F)(F)F` ?
4.36 µM (active)

What does the record list as Potency for `O=C(CCl)Nc1ccccc1` ?
38.9 µM (active)

What does the record list as Potency for CC(C)CC(C)Nc1ccc(Nc2ccccc2)cc1 (stereo not drawn) ?
21.5 µM (active)

What does the record list as Potency for CC(C)C1CCC(Cc2ccc(Cl)cc2)C1(O)Cn1cncn1 (stereo not drawn) ?
10.9 µM (active)

What does the record list as Potency for `CC(C)OC(=O)C(O)(c1ccc(Cl)cc1)c1ccc(Cl)cc1` ?
24.5 µM (active)

What does the record list as Potency for `O=c1ssc(Cl)c1Cl` ?
13.8 µM (active)

What does the record list as Potency for `CN(C)C(=S)[S-].CN(C)C(=S)[S-].[Cu+2]` ?
1.19 µM (active)

What does the record list as Potency for `CC(C)(C)c1cc([N+](=O)[O-])cc(C(C)(C)C)c1O` ?
6.92 µM (active)

What does the record list as Potency for `CC(=O)OC1(c2ccccc2)CCN(CCc2ccccc2)CC1` ?
28.2 µM (active)

What does the record list as Potency for `CN(C)S(=O)(=O)N(SC(F)(Cl)Cl)c1ccccc1` ?
4.36 µM (active)

What does the record list as Potency for `O=C(O)c1cc[c]([Hg][Cl])cc1` ?
15.5 µM (active)

What does the record list as Potency for `CC[C@H](C)[C@H]1O[C@]2(C=C[C@@H]1C)C[C@@H]1C[C@@H](C/C=C(\C)[C@@H](O[C@H]3C[C@H](OC)[C@@H](O[C@H]4C[C@H](OC)[C@@H](O)[C@H](C)O4)[C@H](C)O3)[C@@H](C)/C=C/C=C3\CO[C@@H]4[C@H](O)C(C)=C[C@@H](C(=O)O1)[C@]34O)O2` ?
10.3 µM (active)

What does the record list as Potency for `CC(C)N1C(=O)N(c2ccccc2)CSC1=NC(C)(C)C` ?
21.9 µM (active)

What does the record list as Potency for `Fc1ccc(Oc2ccnc3cc(Cl)cc(Cl)c23)cc1` ?
9.77 µM (active)

What does the record list as Potency for `CC(C)(c1ccc(O)c(-c2ccccc2)c1)c1ccc(O)c(-c2ccccc2)c1` ?
19.5 µM (active)

What does the record list as Potency for `CCCCCCCCCC[N+](C)(C)CCCCCCCCCC` ?
0.977 µM (active)

What does the record list as Potency for COC12CC[C@@]3(C[C@@H]1C(C)(O)C(C)(C)C)[C@H]1Cc4ccc(O)c5c4[C@@]3(CCN1CC1CC1)[C@H]2O5 (stereo partly drawn) ?
24.4 µM (active)

What does the record list as Potency for `CC(=O)[O-].[Tl+]` ?
27.7 µM (active)

What does the record list as Potency for `O=C(CCCN1CCC2(CC1)C(=O)NCN2c1ccccc1)c1ccc(F)cc1` ?
13.4 µM (active)

What does the record list as Potency for `O=[N+]([O-])O.O=[N+]([O-])O.[Cd]` ?
24.5 µM (active)

What does the record list as Potency for `C[C@]12Cc3nonc3C[C@@H]1CC[C@@H]1[C@@H]2CC[C@@]2(C)[C@H]1CC[C@]2(C)O` ?
19 µM (active)

What does the record list as Potency for `CC1(C)CN=C(NN=C(/C=C/c2ccc(C(F)(F)F)cc2)/C=C/c2ccc(C(F)(F)F)cc2)NC1` ?
38.9 µM (active)

What does the record list as Potency for `COc1cc(C=O)cc2c1[C@H](COC(N)=O)[C@]1(OC(C)=O)ON2C[C@H]2[C@@H]1N2C(C)=O` ?
0.0309 µM (active)

What does the record list as Potency for C[C@H]1CC[C@@H]2[C@@H](C)[C@H]3[C@H](C[C@H]4[C@@H]5CC=C6CC(O[C@@H]7O[C@H](CO)[C@H](O)[C@H](O[C@@H]8O[C@H](CO)[C@@H](O)[C@H](O)[C@H]8O)[C@H]7O[C@H]7O[C@@H](C)[C@H](O)[C@@H](O)[C@H]7O)CC[C@]6(C)[C@H]5CC[C@]34C)N2C1 (stereo partly drawn) ?
14.3 µM (active)

What does the record list as Potency for CC1(c2ccc(Oc3ccccc3)cc2)OC(=O)N(Nc2ccccc2)C1=O (stereo not drawn) ?
49.3 µM (active)

What does the record list as Potency for `O=C(CCl)C(Cl)Cl` ?
17.5 µM (active)

What does the record list as Potency for `CCCN(CCC)c1c([N+](=O)[O-])cc(S(N)(=O)=O)cc1[N+](=O)[O-]` ?
35.4 µM (active)

What does the record list as Potency for c1ccc2c(c1)OCC(C1=NCCN1)O2 (stereo not drawn) ?
19 µM (active)

What does the record list as Potency for CC(C)(C)C(O)/C(=C\c1ccc(Cl)cc1Cl)n1cncn1 (stereo not drawn) ?
26.5 µM (active)

What does the record list as Potency for CCC(C)c1cc([N+](=O)[O-])cc([N+](=O)[O-])c1OC(=O)C=C(C)C (stereo not drawn) ?
21.9 µM (active)

What does the record list as Potency for `C=CC(=O)OCC(COC(=O)C=C)(COC(=O)C=C)COC(=O)C=C` ?
3.89 µM (active)

What does the record list as Potency for `[Cl][Sn]([c]1ccccc1)([c]1ccccc1)[c]1ccccc1` ?
0.233 µM (active)

What does the record list as Potency for `CCc1nn(C)c(C(=O)NCc2ccc(C(C)(C)C)cc2)c1Cl` ?
0.0977 µM (active)

What does the record list as Potency for CCOP(=O)(NC(C)C)Oc1ccc(SC)c(C)c1 (stereo not drawn) ?
13.8 µM (active)

What does the record list as Potency for `CC(C)CC(C)(c1ccc(O)cc1)c1ccc(O)cc1` ?
27.6 µM (active)
